Protocol summary: Evaluation of stability in liver microsome
Condition description: mouse liver microsome 0.25 mg/mL, 1 μM test compound, 37° C. for 30 minutes
Attribute measured: Remaining (%)

Compound | Result
COCc1ccc(NC(=O)c2c(Br)n(C3(C)CC3)c3ncnc(N)c23)cc1 [Example 55] | 56%
COCc1ccc(NC(=O)c2c(C#Cc3csc(C)n3)n(C3(C)CC3)c3ncnc(N)c23)cc1 [Example 126] | 69%
COCc1ccc(NC(=O)c2c(C#Cc3cnn(C)c3C)n(C3(C)CC3)c3ncnc(N)c23)cc1 [Example 182] | 61%
COCc1ccc(NC(=O)c2c(OCC(C)OC)n(C3(C)CC3)c3ncnc(N)c23)cc1 (stereo not shown) [Example 100] | 76%
COCc1ccc(NC(=O)c2c(C#CC3CCOCC3)n(C3(C)CC3)c3ncnc(N)c23)cc1 [Example 87] | 63%
COCc1ccc(NC(=O)c2c(Cl)n(C3(C)CC3)c3ncnc(N)c23)cc1 [Example 56] | 62%
COCc1ccc(NC(=O)c2c(C#CC3CCOCC3)n(C3(C)CC3)c3ncnc(N)c23)cc1F [Example 205] | 58%
COCc1ccc(NC(=O)c2c(C#Cc3cncnc3)n(C3(C)CC3)c3ncnc(N)c23)cc1 [Example 196] | 53%
Nc1ncnc2c1c(C(=O)Nc1ccc(Oc3ccccc3)cc1)cn2C1CCCC1 [Compound 2 of Comparative Examples, reference compound] | 0%
COCc1ccc(NC(=O)c2c(-c3ccccc3)n(C3(C)CC3)c3ncnc(N)c23)cc1 [Example 154] | 50%
CCc1c(C(=O)Nc2ccc(COC)cc2)c2c(N)ncnc2n1C1(C)CC1 [Example 207] | 72%
COCc1ccc(NC(=O)c2c(C#Cc3ccccc3OC)n(C3(C)CC3)c3ncnc(N)c23)cc1 [Example 113] | 79%
COCc1ccc(NC(=O)c2c(OC[C@H]3CCCO3)n(C3(C)CC3)c3ncnc(N)c23)cc1 [Example 89] | 69%
COCc1ccc(NC(=O)c2c(C)n(C(C)(C)C)c3ncnc(N)c23)cc1 [Example 60] | 81%
CCC(O)CC#Cc1c(C(=O)Nc2ccc(COC)cc2)c2c(N)ncnc2n1C1(C)CC1 (stereo not shown) [Example 157] | 59%
COCc1ccc(NC(=O)c2c(-c3ccc(CO)cc3)n(C3(C)CC3)c3ncnc(N)c23)cc1 [Example 145] | 72%

---

Protocol summary: Evaluation of stability in liver microsome
Condition description: mouse liver microsome 0.25 mg/mL, 1 μM test compound, 37° C. for 30 minutes

Compound | Uom | Remaining (%)
COCc1ccc(NC(=O)c2c(C#Cc3cnn(C)c3)n(C3(C)CC3)c3ncnc(N)c23)cc1 | % | 67
CCOc1c(C(=O)Nc2ccc(COC)cc2)c2c(N)ncnc2n1C1(C)CC1 | % | 70
COCc1ccc(NC(=O)c2c(C#Cc3ccccn3)n(C3(C)CC3)c3ncnc(N)c23)cc1 | % | 61
COCc1ccc(NC(=O)c2c(C#Cc3ccc(Cl)nc3)n(C3(C)CC3)c3ncnc(N)c23)cc1 | % | 72
COCc1ccc(NC(=O)c2c(C#CCCN3CCOCC3)n(C3(C)CC3)c3ncnc(N)c23)cc1 | % | 68
COCc1ccc(NC(=O)c2c(C#Cc3cccs3)n(C3(C)CC3)c3ncnc(N)c23)cc1 | % | 70
COCc1ccc(NC(=O)c2c(C#Cc3ccccc3)n(C3(C)CC3)c3ncnc(N)c23)cc1 | % | 76
COCc1ccc(NC(=O)c2c(OCC3CCCO3)n(C3(C)CC3)c3ncnc(N)c23)cc1 (centres unmarked) | % | 67
